Target: T1, TCF/Pangolin HMG + C-clamp fragment (UniProt P91943 273-400)
T1 sequence: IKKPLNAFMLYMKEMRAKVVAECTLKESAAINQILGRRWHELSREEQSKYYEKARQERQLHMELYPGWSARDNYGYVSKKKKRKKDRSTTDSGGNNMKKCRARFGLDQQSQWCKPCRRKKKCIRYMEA
Assay: competition EMSA; labeled AK6 probe; 10 mM Tris-HCl pH 7.5, 50 mM KCl, 1 mM DTT, 50 mM MgCl2 (so in the source), 0.05% NP40, 3.5% glycerol, 50 ug/ml poly(dIdC); 6 pmol protein, 0-2.4 pmol competitor, 20
Settings: protein: recombinant; tags: His (pET52b(+), XmaI/SacI); blunt
Entries and their IC50 values follow.

In the examples that follow, each entry is paired with its recorded IC50.
Binder	Result Value
RW0 competitor (dsDNA) DNA 1: TGGTACGATAAGATCAAAGGTGGCGGCGTCGTACAC DNA 2: GTGTACGACGCCGCCACCTTTGATCTTATCGTACCA	189 nM
KK6 competitor (dsDNA) DNA 1: TACGATCCTTTGATCTTTGCAGTTGGCGGCGTCGTA DNA 2: TACGACGCCGCCAACTGCAAAGATCAAAGGATCGTA	99.7 nM

With those in mind, consider the next binder.
Q: May I ask what IC50 has been recorded for FF0 competitor (dsDNA) DNA 1: TGGTACGATCCTTTGATCTTGCCGCCAGTCGTACAC DNA 2: GTGTACGACTGGCGGCAAGATCAAAGGATCGTACCA ?
Ans: 9.4 nM
